pIC50 tested on UniProt:P49841: recorded values
Sequence (P49841 whole entry): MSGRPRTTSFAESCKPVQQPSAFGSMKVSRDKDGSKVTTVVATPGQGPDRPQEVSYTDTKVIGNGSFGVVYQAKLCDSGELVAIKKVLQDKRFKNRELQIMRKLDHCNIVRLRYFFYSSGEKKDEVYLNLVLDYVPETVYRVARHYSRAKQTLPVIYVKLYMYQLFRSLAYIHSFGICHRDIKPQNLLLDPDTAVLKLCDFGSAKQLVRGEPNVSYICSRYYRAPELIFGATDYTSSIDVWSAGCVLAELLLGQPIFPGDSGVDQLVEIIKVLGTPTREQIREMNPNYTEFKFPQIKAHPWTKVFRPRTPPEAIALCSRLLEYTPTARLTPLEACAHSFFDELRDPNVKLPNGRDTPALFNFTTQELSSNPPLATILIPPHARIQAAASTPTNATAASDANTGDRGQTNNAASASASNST
The meaning of pIC50 here: minus log10 of the concentration in molar units.

Consider the reported pIC50 for these molecules:
CNC(=O)c1sc(-c2ccnc(NC(=O)CNCCNc3c4c(nc5cc(Cl)ccc35)CCCC4)c2)nc1OCC1CC1
7.20
CNC(=O)c1sc(-c2ccnc(NC(=O)C3CC3)c2)nc1OCCOCc1cn(CCNc2c3c(nc4cc(Cl)ccc24)CCCC3)nn1
7.58
CNC(=O)c1sc(-c2ccnc(NC(=O)C3CC3)c2)nc1OCCOCc1cn(-c2c3c(nc4ccccc24)CCCC3)nn1
7.08
CNC(=O)c1sc(-c2ccnc(NC(=O)C3CC3)c2)nc1OCCc1cn(CCNc2c3c(nc4ccc(OC)cc24)CCCC3)nn1
7.43

Exam item: Report value: pIC50, system: UniProt:P49841, molecule: CNC(=O)c1sc(-c2ccnc(NC(=O)CNCCNc3c4c(nc5ccccc35)CCCC4)c2)nc1OCC1CCC1
Marked response: 6.88
